test.name: chemical genetic growth profiling, strain panel (AID 1159580);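 further: tested at 20 µM; growth read once vehicle control cultures reached saturation at 30 °C; 1 = growth at the plate median or of vehicle wells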
condition.info: S. cerevisiae deletion strains, growth OD, locus YOR231W, strain MKK1
The campaign covered roughly 5,500 compounds. About 2,000 (36%) were called active. Roughly 18% stayed inconclusive and do not appear here. No stated cut-off is given here; in the data, active means normalized growth mostly below about 0.91 (no sharp cut-off); inconclusive means no clear call, values can overlap the other calls; inactive means mostly above about 0.92. Some of the results follow.
Select the matching outcome among active, inactive

The following compounds have reported results that may help.
O=C1c2ccccc2C(=O)C1(O)C1(O)C(=O)c2ccccc2C1=O :: inactive
CCOC(=O)c1ccc(N=Cc2cc(Cl)cc(Cl)c2O)cc1 :: active
CCOC(=O)C(NC(=O)c1cccc(Cl)c1)(Nc1nc2ccccc2s1)C(F)(F)F (centres undefined) :: inactive
O=C(CCc1ccc(O)cc1)c1c(O)cc(O)cc1O :: inactive
O=C(NCc1ccc2c(c1)OCO2)c1cc2ccccc2s1 :: active

Outcome? Oc1cccc2cccnc12
inactive

Outcome? O=[N+]([O-])c1cc(C(F)(F)F)ccc1Sc1n[nH]c(-c2cc(Cl)cc(Cl)c2)n1
active

Outcome? CN1C(=O)CC[C@H]1c1cccnc1
inactive

Outcome? O=C(N[C@@H](CO)[C@H](O)c1ccc([N+](=O)[O-])cc1)C(Cl)Cl
inactive

Outcome? C/C(=C\CO)CC[C@H](C)CCC[C@H](C)CCCC(C)C
inactive

Outcome? COC(=O)c1sccc1S(=O)(=O)Nc1cc(C(F)(F)F)cc(C(F)(F)F)c1
inactive

Outcome? O=C(O)CCC(=O)OC[C@@H](NC(=O)C(Cl)Cl)[C@H](O)c1ccc([N+](=O)[O-])cc1
inactive

Outcome? O=C(Nc1ccc(F)cc1F)c1cc(Cl)ccc1O
inactive

Outcome? CC1SC(c2cccnc2)N(c2ccc(Cl)cc2)C1=O (centres undefined)
active

Outcome? COc1cc(O)ccc1C(C)=O
inactive

----------
test.name: chemical genetic growth profiling, strain panel (AID 1159580);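 further: tested at 20 µM; growth read once vehicle control cultures reached saturation at 30 °C; 1 = growth at the plate median or of vehicle wells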
condition.info: S. cerevisiae deletion strains, growth OD, locus YNL209W, strain ssb2, stronger effect = lower value
Hit rate of the full screen: of about 5,500 compounds, about 2,000 (36%) were called active. Roughly 18% stayed inconclusive and do not appear here. Some of the results follow.
quantity.name: normalized growth
Output spec: single numeric token, no unit.

These recorded examples may help you get a feel for the data.
O=c1c(O)c(-c2ccccc2)oc2cccc(O)c12 :: 0.725
CCCCN(CC)c1c([N+](=O)[O-])cc(C(F)(F)F)cc1[N+](=O)[O-] :: 1.01

Determine its reported normalized growth: CO/N=C(/C(=O)NC1C(=O)N2C(C(=O)OCOC(=O)C(C)(C)C)=C(/C=C\c3scnc3C)CSC12)c1csc(N)n1 (stereo unspecified)
1.01

Determine its reported normalized growth: COc1ccc(NS(=O)(=O)c2ccc(N)cc2)nn1
1.01

Determine its reported normalized growth: CC(C)[C@@H]1CC[C@@H](C)CC1=O
1

Determine its reported normalized growth: COc1ccccc1OCC(O)COC(N)=O (stereo unspecified)
0.984

----------
test.name: chemical genetic growth profiling, strain panel (AID 1159580);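 further: tested at 20 µM; growth read once vehicle control cultures reached saturation at 30 °C; 1 = growth at the plate median or of vehicle wells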
condition.info: S. cerevisiae deletion strains, growth OD, locus YER167W, strain BCK2, stronger effect = lower value
The whole screen tested about 5,500 compounds, of which about 2,000 (36%) were called active. Not shown: some 18% with an inconclusive outcome. This is one part of the list.
quantity.name: normalized growth
Output spec: single numeric token, no unit.

These recorded examples may help you get a feel for the data.
COc1cc(O)ccc1C(C)=O :: 0.979
CC[C@H]1OC(=O)[C@H](C)[C@@H](O[C@H]2C[C@@](C)(OC)[C@@H](O)[C@H](C)O2)[C@H](C)[C@@H](O[C@@H]2O[C@H](C)C[C@H](N(C)C)[C@H]2O)[C@](C)(O)C[C@@H](C)/C(=N/OCOCCOC)[C@H](C)[C@@H](O)[C@]1(C)O :: 1
C/C(=C\CO)CC[C@H](C)CCC[C@H](C)CCCC(C)C :: 1.01
CC(C)c1cc2c(c(O)c1O)[C@@]1(C(=O)O)CCCC(C)(C)C1CC2 (stereo not given in full) :: 0.981
CC(C)=CCC/C(C)=C/CO :: 1.01
COc1ccc(CC(=O)c2ccc(O)cc2O)cc1 :: 0.962
COP(=O)(NC(C)=O)SC (stereo not given) :: 0.989
CN(C)CCC[C@@]1(c2ccc(F)cc2)OCc2cc(C#N)ccc21 :: 1.02
CC1(C)CC23C(=O)CCC(O)C2(C)CCC13 (stereo not given) :: 0.997

Could you now consider this next compound?
Determine its reported normalized growth: CN1CCN(C2=Nc3cc(Cl)ccc3Nc3ccccc32)CC1
1

Where do the numbers come from? From PubChem BioAssay AID1159580.
